These data points were gathered from patent US20220185900A1.

- Target Entity: T1, hRET.mmh (human, UniProt P07949 29-635, biotinylated in the ELISA of Example 4 (biot-hRET.mmh); not in the SPR of Example 3)
- T1 construct: also called biot-hRET.mmh; soluble monomeric human RET
- Test Protocol: competition sandwich ELISA: 1 nM biot-hRET.mmh + antibody, plate-coated GDNF/GFRα1 co-complex
- Procedure: The ability of anti-RET antibodies to block the binding of human RET to pre-complexed plate bound GDNF:GFRα1 was assessed using a competition sandwich ELISA. Antibody-RET mixtures were incubated for 1 hour at RT and then transferred to microtiter plates previously coated with the hGDNF/hGFRα1 co-complex. Binding was allowed to proceed for 1 hr at RT followed by extensive washing. […] Plates were read at 450 nm and data analysis used a sigmoidal dose-response model within Prism™ software. […]
Entries and their IC50 values follow.

Reference set, count: 2
Binder	Result Value
H4H8058P (antibody, human IgG4, V domains shown, human IgG4 Fc (H4H prefix)) VH: QVQLVESGGGVGQPGRSLRLSCVASGFTFRNYGMHWVRQAPGKGLDWVAIIGYDGSKEYNVDSVKGRFTISRDNSKNTLYLQMNSLGAEDTAIYYCARESPITGTTFDYWGQGTLVTVSS VL: DIQMTQSPPSLSASVGDRVTITCRASQSIGNYLNWYQQKPGKAPKILIYAASRLQSGVPSRFSGSGSGTDFTLTISSLQPEDFATYYCQQSYSTPLTFGGGTKVEIK	0.25 nM
H4H8085P (antibody, human IgG4, V domains shown, human IgG4 Fc (H4H prefix)) VH: QVQLVESGGGVVQPGRSLRLSCTASGFTFDNYGMHWVRQAPGKGLEWVAVISYDGSNTFYADSVKGRFTISRDNSKNALYLQMNSLRAEDTAVYYCAKDLEFDILIGYPFDSWGRGTLVTVSS VL: DIQLTQSPSFLSASVGDRVTITCWASQDISRYLAWYQQKPGKAPNLLIYAASTLQSGVPSRFSGSGSGTEFTLTINSLQPEDFATYYCQQLFSYPRTFGQGTKVEIK	< 0.25 nM

Read the next record carefully.
Reported IC50 of H4H8087P (antibody, human IgG4, V domains shown, human IgG4 Fc (H4H prefix)) VH: QVQLVESGGGVVQPGRSLRLSCAASGFSFSSYGMHWVRQAPGKGLEWVAVMWYDGSNEYYADSVKGRFIISRDNSKSTLYLEMNSLRAEDTALYYCAREDWDEGYYYGMDVWGQGTTVTVSS VL: DIQMTQSPSSLFASVGDRVTITCRASQDIRYDLGWYQQKPGKAPKRLIYASSILESGVPSRFSGSGSGTEYTLTISTLQSEDFAIYYCLQHNSFPWTFGQGTKVEIK : < 0.25 nM
